Would you kindly list ELISA FLT3 (absorbance) for each of these binders?
target: T1, human FLT3 protein (human, UniProt P36888 27-541, limits assumed); assay: colorimetric ELISA, periplasmic extract
T1 construct: protein coated in the screening ELISA; also called ELISA FLT3
One number for each entry, in absorbance.

These recorded examples may help you get a feel for the data.
[[record]]
binder = "FLL92 (VHH, llama anti-FLT3 variable domain; E. coli periplasmic extract) VHH: QVQLQESGGGLVQAGGSLMVSCAASGGTWSSYATGWFRQVPGKERELIAGISRSGGRTYYAESVKGRFTISRDNAKNTVYLQMNTLKSDDTAVYYCAAARYFTSSVVYTSGNDYDYWGQGTQVTVSS"
assay_value = 4

[[record]]
binder = "FLL102 (VHH, llama anti-FLT3 variable domain; E. coli periplasmic extract) VHH: QVQLQESGGGLVQAGGSLMVSCAASGGTWSSYATGWFRQVPGKERKLIAGISRSGGRTYYAESVKGRFTISRDNAKNTVYLQMNTLKPDDTAVYYCAAARYFTSSVVYTSGNDYDYWGQGTQVTVSS"
assay_value = 3.7

[[record]]
binder = "FLL112 (VHH, llama anti-FLT3 variable domain; E. coli periplasmic extract) VHH: QVQLQESGGGLVQAGGSLRLSCAVSGRTFSGFGTGWFRQAPGKEREFVAAISWAGGRTHYEDSVKGRFTIHRDNAKNTVYLQMNSLKPEDTAVYYCAAQVSRAYDGIWYSGGDYWGQGTQVTVSS"
assay_value = 3.6

[[record]]
binder = "FLL142 (VHH, llama anti-FLT3 variable domain; E. coli periplasmic extract) VHH: QVQLQESGGGLVQAGGSLRLSCAVSGRTFSGFGTGWFRQAPGKEREFVAAISWDGGRTHYADFVKGRFTISRDNAKNTVYLQMNSLKPEDTAVYYCAAQVARAYDSKWYSGGDYWGQGTQVTVSS"
assay_value = 4


I have 4 binders here; please give me ELISA FLT3 (absorbance) for each one.
1. FLL125 (VHH, llama anti-FLT3 variable domain; E. coli periplasmic extract) VHH: QVQLQESGGGLVQAGGSLRLSCAASGSTFSRNYIDWYRQAPGKQREWVAQITSGGNTHYEPSLKGRFTISRDNAKNTAYLQMNSLKPEDTAVYYCRILDYWGQGTQVTVSS
2. FLL55 (VHH, llama anti-FLT3 variable domain; E. coli periplasmic extract) VHH: QVQLQESGGGLVQAGGSLRLSCAASGSTFSRNYIDWYRQAPGKQREWVAQITSAGNTHYEPSLKGRFTISRDNAKNTAYLQMNSLKPEDTAVYYCRILDYWGQGTQVTVSS
3. FLL6 (VHH, llama anti-FLT3 variable domain; E. coli periplasmic extract) VHH: QVQLQESGGGLVQAGGSLRLSCAVSGRTFSGFGTGWFRQAPGKEREFVAAISWDGGRTHYADSVKGRFTISRDNAANTVYLQMNSLKPEDTAVYYCAGQVSRAYDSMWYGRDDYWGQGTQVTVSS
4. FLL1 (VHH, llama anti-FLT3 variable domain; E. coli periplasmic extract) VHH: QVQLQESGGGLVQAGGSLRLSCAASGRTFSTLTVAWFRQAPGKEREFVVASIPSGSNTGYAESVKGRFTISRDIAKNTVYLQMNSLKPEDTAMYFCAARIYFGSSRGYDYWGQGTQVTVSS

Data returned:
[2.1, 2, 3.8, 3.4]
